- Species on record: Homo sapiens
- measurement description: To identify inhibition of the IFN signalling (Jak-Stat) pathway via expression of an eGFP reporter gene under the control of an IFN-stimulated response element (ISRE) containing MxA promoter.
- Format: functional
- Parameters: scale not given: direction of the effect not stated beside the values
- run parameters: 30 µM
endpoint label: Percent Effect
Give the value; after it, write the unit.

COC1CC2(CCN(Cc3ccc4c(c3)OCO4)CC2)C1: -11.4%
CN(Cc1cn2ccccc2c1C#N)C1CCCN(c2cccnn2)C1 (configuration not stated): 6.2%
CN1CCC/C1=N\S(=O)(=O)c1ccc(NC(=O)c2ccc(F)cc2)cc1: 14.2%
CCc1[nH]ncc1C(=O)N1CCCN(Cc2cnn(C(C)C)c2)CC1: 24.4%
O=C(CCC1CCN(Cc2ncc[nH]2)CC1)Nc1ccccc1Cl: 0.831%
O=C(Nc1ccccc1)c1nn(C2CCS(=O)(=O)C2)c2c1CCCC2 (configuration not stated): 8.39%
Cc1nnc(N2CCCC3(CN(Cc4ccc(C)s4)CCO3)C2)o1 (configuration not stated): -2.59%
CC(c1ccc(Cl)cc1)N1CCN(CCS(C)(=O)=O)CC1 (configuration not stated): 10.3%
CC(C)c1ncc2c(n1)CN(Cc1cccc(OCC(N)=O)c1)CC2: -8.11%
O=C(NCc1ccco1)[C@H]1C[C@H]2OCC[C@H]2N(C(=O)c2ccco2)C1: -6.88%

Now examine the next entry.
Ask: Requested read-out: Percent Effect. Entry: `CN(C)c1cc(C(=O)N2CCN(S(C)(=O)=O)CC2)ccn1`
Result: 25.7%

###

- assayed target: Tyrosyl-tRNA synthetase, putative (Trypanosoma cruzi (strain CL Brener))
- Sequence (whole entry): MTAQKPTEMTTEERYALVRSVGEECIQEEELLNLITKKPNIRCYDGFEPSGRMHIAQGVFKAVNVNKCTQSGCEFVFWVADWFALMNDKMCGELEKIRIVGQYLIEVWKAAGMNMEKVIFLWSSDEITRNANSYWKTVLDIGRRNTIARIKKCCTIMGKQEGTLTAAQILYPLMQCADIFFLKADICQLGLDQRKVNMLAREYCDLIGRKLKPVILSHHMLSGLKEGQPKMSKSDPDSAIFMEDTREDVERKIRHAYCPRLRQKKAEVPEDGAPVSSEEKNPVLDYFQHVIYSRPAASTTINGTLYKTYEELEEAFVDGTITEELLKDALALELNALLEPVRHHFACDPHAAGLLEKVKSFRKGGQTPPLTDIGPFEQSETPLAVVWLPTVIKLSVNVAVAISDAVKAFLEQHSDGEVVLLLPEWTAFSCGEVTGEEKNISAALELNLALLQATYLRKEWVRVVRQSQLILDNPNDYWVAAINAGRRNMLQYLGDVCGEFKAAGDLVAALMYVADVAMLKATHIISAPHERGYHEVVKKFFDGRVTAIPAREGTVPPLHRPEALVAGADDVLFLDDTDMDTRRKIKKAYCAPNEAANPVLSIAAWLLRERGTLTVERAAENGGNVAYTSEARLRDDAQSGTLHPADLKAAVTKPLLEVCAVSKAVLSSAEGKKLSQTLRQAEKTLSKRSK
- measurement description: Trypanosoma cruzi tyrosyl tRNA synthetase (TcYRS) _High Tyrosine SOP; further: in the data most compounds retested in dose-response had high values
- Type: functional
- Parameters: scale not given: direction of the effect not stated beside the values
- run parameters: 30 µM
Measured Percent Effect accompanies every entry in the list below.
The response must be a number in % with no trailing unit.

COCCN(C)CCN1CC2(CCN(C3CCCOC3)CC2)OC1=O (stereo unspecified): 3.23

Now examine the next entry.
Ask: Requested read-out: Percent Effect. Entry: CC(C)c1noc(CCCC(=O)NC2CCS(=O)(=O)C2)n1 (stereo unspecified)
Result: 5.79
